Reference source: paper PMC12261273

target: prostate specific antigen (PSA) (human, UniProt P07288 25-261); experiment: SPR; RT (electrochemistry), pH 7.4; PSA-1, B4 and truncations: 1x PBS (10 mM phosphate, 154 mM NaCl); 24nt variants: 10 mM Tris-HCl, 150 mM NaCl, 5 mM KCl, 5 mM MgCl2; Gli1 series: 50 mM Tris-HCl, 250 mM NaCl, 5 mM MgCl2; conditions: protein: native; label: 5' 6FAM
Sequence (P07288 25-261): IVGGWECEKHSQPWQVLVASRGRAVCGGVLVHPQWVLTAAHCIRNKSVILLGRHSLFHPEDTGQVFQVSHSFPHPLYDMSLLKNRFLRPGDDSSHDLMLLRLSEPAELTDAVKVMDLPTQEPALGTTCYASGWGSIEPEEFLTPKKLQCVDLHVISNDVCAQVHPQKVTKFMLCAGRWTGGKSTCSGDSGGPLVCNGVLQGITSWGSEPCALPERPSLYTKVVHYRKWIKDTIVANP
Reported values of pKd for individual entries
Lab note: report pKd as minus log10 of the concentration in molar units, number only.

TTTTTGGACGGTTGCGCTATATTTAACCAAAAGTCTGGATTAACA (ssDNA) [PSA-1] : 6.90

Attention now shifts to the item below.
Data request: Quick one: give measured pKd for TTTTTTATTTAACCAAAAGTCTGGATTAACA (ssDNA) [PSA-1T(15-40)]
Data returned: 6.89
